I'd be grateful if you could share measured pIC50 for these entries.
biological target: PD-1/PD-L1 (Homo sapiens, UniProt Q9NZQ7); construct: made in house; host or cells: HEK293T; assay: PD-1/PD-L1 Homogenous Time-Resolved Fluorescence (HTRF) binding assay; settings: PD-L1-His 10 nM, PD-1-Ig 20 nM; value given as range class; read-out: Range or IC50
Sequence (Q9NZQ7 with tags, fused parts or gaps): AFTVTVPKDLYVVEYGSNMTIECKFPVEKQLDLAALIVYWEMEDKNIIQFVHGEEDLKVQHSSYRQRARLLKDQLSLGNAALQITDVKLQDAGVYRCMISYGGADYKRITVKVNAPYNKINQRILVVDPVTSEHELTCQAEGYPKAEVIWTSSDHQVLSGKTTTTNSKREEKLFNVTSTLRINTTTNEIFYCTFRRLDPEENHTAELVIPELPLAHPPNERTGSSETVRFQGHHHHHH
pIC50: −log10 of the molar value.

Answered cases to consult:
- Compound: "Cc1c(COc2cc(OCc3cncc(C#N)c3)c(CN3CCCC[C@H]3C(=O)O)cc2Cl)cccc1-c1cccc(OCCCN[C@@H](CO)C(C)C)c1C [Example 2237]"
  pIC50: "8.00 to 9.68"
- Compound: "Cc1c(COc2ccc(CN3CCCC[C@H]3C(=O)O)cc2Cl)cccc1-c1cccc(OCCCN2CC[C@@H](O)C2)c1C [Example 3072]"
  pIC50: "8.00 to 9.68"

// moving on: another record for pIC50
Prompt: Give its pIC50 value. Item: Cc1c(COc2cc(OCc3cncc(C#N)c3)c(CNC(CO)CO)cc2Cl)cccc1-c1cccc(OCCCN2CCC(O)(CO)CC2)c1Cl [Example 2063]
Response: 5.70 to 7.00

---

target: PD-1/PD-L1 (Homo sapiens); construct: made in house; host or cells: HEK293T; test: PD-1/PD-L1 Homogenous Time-Resolved Fluorescence (HTRF) binding assay; settings: PD-L1-His 10 nM, PD-1-Ig 20 nM; value given as range class; read-out: Range or IC50
Property Label: IC50

Use these answered entries as a reference point.
- Molecule: "Cc1c(COc2cc(OCc3cncc(C#N)c3)c(CN[C@@](C)(CO)C(=O)O)cc2Cl)cccc1-c1cccc(OCCCN2CCC(O)(c3ccccc3)C2)c1C (stereo partly drawn)"
  IC50: "0.00021 to 0.01 µM"
- Molecule: "Cc1c(COc2cc(OCc3cncc(C#N)c3)c(CO)cc2Cl)cccc1-c1cccc(OCCCN2CC[C@@H](O)C2)c1C(F)F"
  IC50: "0.01 to 0.1 µM"

// switching to the query molecule
Prompt: Query: IC50; subject: Cc1c(COc2cc(OCc3cncc(C#N)c3)c(CN(CCO)CCO)cc2Cl)cccc1-c1cccc(CN(C)CCN2CCS(=O)(=O)CC2)c1C
Response: 0.01 to 0.1 µM

---

Please respond with reported IC50 for every item in the list.
Biological target: PD-1/PD-L1 (Homo sapiens)
Construct: made in house; host or cells: HEK293T
Experiment: PD-1/PD-L1 Homogenous Time-Resolved Fluorescence (HTRF) binding assay
Conditions: PD-L1-His 10 nM, PD-1-Ig 20 nM; value given as range class; read-out: Range or IC50
Method: The ability of the compounds of formula (I) to bind to PD-L1 was investigated using a PD-1/PD-L1 Homogenous Time-Resolved Fluorescence (HTRF) binding assay. Homogenous Time-Resolved Fluorescence (HTRF) Binding Assay. All binding studies were performed in an HTRF assay buffer consisting of dPBS supplemented with 0.1% […] bovine serum albumin and 0.05% (v/v) Tween-20. […]

- Compound: "Cc1c(COc2cc(OCc3cncc(C#N)c3)c(CN3CCCC[C@H]3C(=O)O)cc2Cl)cccc1-c1cccc(OCCCNCC(O)c2ccccn2)c1C (stereo partly drawn) [Example 2222]"
  Recorded Value: "0.21 to 10 nM"
- Compound: "Cc1c(COc2cc(OCc3cncc(C#N)c3)c(CN3CCCC[C@H]3C(=O)O)cc2Cl)cccc1-c1cccc(OCCCN2CCC(CO)(C(=O)O)CC2)c1C [Example 1110]"
  Recorded Value: "10 to 100 nM"
- Compound: "COC(=O)C1(C)CCCCN1Cc1cc(Cl)c(OCc2cccc(-c3cccc(OCCCN4CC[C@@H](O)C4)c3C)c2C)cc1OCc1cncc(C#N)c1 (stereo partly drawn) [Example 3069]"
  Recorded Value: "0.21 to 10 nM"
- Compound: "CC(=O)N[C@@H]1CCN(CCCOc2cccc(-c3cccc(COc4cc(OCc5cncc(C#N)c5)c(CN[C@@](C)(CO)C(=O)O)cc4Cl)c3C)c2C)C1 [Example 2270]"
  Recorded Value: "0.21 to 10 nM"
- Compound: "Cc1c(COc2cc(OCc3cncc(C#N)c3)c(CN[C@H](CO)C(=O)O)cc2Cl)cccc1-c1cccc(OCC(=O)N2CC[C@@H](O)C2)c1 [Example 1006]"
  Recorded Value: "10 to 100 nM"

Prompt: Item Cc1c(COc2cc(OCc3cncc(C#N)c3)c(CN3CCCC[C@H]3C(=O)O)cc2Cl)cccc1-c1cccc(C(=O)N2CC2)c1C [Example 4001] has what recorded IC50?
Response: 0.21 to 10 nM
